Tested on: U87-malignant glioma (ATCC-HTB-14)
Experiment summary: MTT assay, cytotoxicity against U87-malignant glioma cells
Format: cell-based, human
Particulars: Homo sapiens, Glioma cell, read-out: % cell viability U87
viability at 10 µM for assorted molecules

Molecule: CC(C)Cc1ccc(C(C)C(=O)NN=Cc2ccc(OCC(=O)NN=Cc3ccccc3O)cc2)cc1 (stereo not shown) [5r]
Unit tag: %
viability at 10 µM: 109

Molecule: COc1ccc(C=NNC(=O)COc2ccc(C=NNC(=O)C(C)c3ccc(CC(C)C)cc3)cc2)cc1O (stereo not shown) [5n]
Unit tag: %
viability at 10 µM: 165

Molecule: CC(C)Cc1ccc(C(C)C(=O)NN=Cc2ccc(OCC(=O)NN=Cc3cccc4ccccc34)cc2)cc1 (stereo not shown) [5t]
Unit tag: %
viability at 10 µM: 179

Molecule: CC(C)Cc1ccc(C(C)C(=O)NN=Cc2ccc(OCC(=O)NN=Cc3ccc(O)cc3O)cc2)cc1 (stereo not shown) [5e]
Unit tag: %
viability at 10 µM: 43.4

Molecule: COc1ccc(C=NNC(=O)COc2ccc(C=NNC(=O)C(C)c3ccc(CC(C)C)cc3)cc2)c(O)c1 (stereo not shown) [5m]
Unit tag: %
viability at 10 µM: 142

Molecule: COc1ccc(C=NNC(=O)COc2ccc(C=NNC(=O)C(C)c3ccc(CC(C)C)cc3)cc2)c(OC)c1 (stereo not shown) [5f]
Unit tag: %
viability at 10 µM: 54.1

Molecule: CC(C)Cc1ccc(C(C)C(=O)NN=Cc2ccc(OCC(=O)NN=Cc3ccc(Cl)cc3Cl)cc2)cc1 (stereo not shown) [5h]
Unit tag: %
viability at 10 µM: 50.2
